Experiment: Cytotoxicity against human MES-SA/Dx5 cells assessed as inhibition of cell proliferation after 72 hrs by MTT assay
Format: functional, cell-based
Conditions: MES-SA/Dx5, 72 h
Field: log10 of IC50. Provide a value for each of the compounds that follow.
// units: nM (pre-log); metric: IC50; scale: log10

Data request: Sample `O=[N+]([O-])c1ccc2c3c(n(CCN4CCCC4)cc13)-c1ccccc1S2(=O)=O` — what was its log10 of IC50?
Data returned: 3.16

Data request: Request: `COc1cccc2c1C(=O)c1c(O)c3c(c(O)c1C2=O)C[C@@](O)(C(=O)CO)C[C@@H]3O[C@H]1C[C@H](N)[C@H](O)[C@H](C)O1`
Data returned: 3.38

Data request: Note, next up: `CCN(CC)CCn1cc2c([N+](=O)[O-])ccc3c2c1-c1ccccc1S3`
Data returned: 3.71

Data request: Can you handle `CN(C)CCn1cc2c([N+](=O)[O-])ccc3c2c1-c1ccccc1S3` next?
Data returned: 3.23

Data request: What do we get for `CCN(CC)CCn1cc2c([N+](=O)[O-])ccc3c2c1-c1ccccc1S3(=O)=O` ?
Data returned: 3.42

Data request: What would you report for `O=[N+]([O-])c1ccc2c3c(n(CCN4CCCCC4)cc13)-c1ccccc1S2` ?
Data returned: 3.96

Data request: Field entry: `CN(C)CCn1cc2c([N+](=O)[O-])ccc3c2c1-c1ccccc1S3(=O)=O`
Data returned: 3.71

Data request: Another compound to look at: `O=[N+]([O-])c1ccc2c3c(n(CCN4CCCCC4)cc13)-c1ccccc1S2(=O)=O`
Data returned: 3.41

Data request: Repeat for the following compound: `O=[N+]([O-])c1ccc2c3c(n(CCN4CCCC4)cc13)-c1ccccc1S2`
Data returned: 3.33

Data request: Continue with `O=C1c2c(O)ccc(O)c2C(=O)c2c(NCCNCCO)ccc(NCCNCCO)c21`
Data returned: 1.90
